Item-by-item account of Kd
# system.name: T1, Mdm4 (1-125) (human, UniProt O15151 1-125)
# T1 construct: range 1-125; also called MDMX; Hdm4
# T1 sequence (looked up): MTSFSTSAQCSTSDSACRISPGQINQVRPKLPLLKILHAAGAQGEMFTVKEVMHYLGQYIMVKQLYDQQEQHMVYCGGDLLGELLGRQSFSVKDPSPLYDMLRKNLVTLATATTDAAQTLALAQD
# protocol.notes: apparent Kd, competitive fluorescence polarization; displacement of FAM-…-NH2 from Mdm4 (1-125)
Bridges are numbered along the chain shown (N, C = ends). [ ]: non-standard residue; d: D form. Trp(6-Cl) = N[C@@H](Cc1c[nH]c2cc(Cl)ccc12)C(=O)O; dTrp(6-Cl) = N[C@H](Cc1c[nH]c2cc(Cl)ccc12)C(=O)O; R8 = C=CCCCCCC[C@@](C)(N)C(=O)O; S5 = C=CCCC[C@](C)(N)C(=O)O
Answer in nM, number only, no unit symbol.

Example results:
binder: Ac-TSF[R8]EY[Trp(6-Cl)]ALL[S5]-NH2 (staple 4-11, also called Ac-TSFXEY(L-6-Cl)WALLX-NH2; L-isomer) [sMTide-02A]
result.units: nM
Kd: 1360

binder: Ac-TSF[R8]EYWNLL[S5]-NH2 (staple 4-11; SMILES CC(=O)N[C@H](C(=O)N[C@@H](CO)C(=O)N[C@@H](Cc1ccccc1)C(=O)N[C@]1(C)CCCCCCC=CCCC[C@@](C)(C(N)=O)NC(=O)[C@H](CC(C)C)NC(=O)[C@H](CC(C)C)NC(=O)[C@H](CC(N)=O)NC(=O)[C@H](Cc2c[nH]c3ccccc23)NC(=O)[C@H](Cc2ccc(O)cc2)NC(=O)[C@H](CCC(=O)O)NC1=O)[C@@H](C)O, Stapled derivative of MTide-01; also called Ac-TSFXEYWNLLX-NH2) [sMTide-01]
result.units: nM
Kd: 118

binder: Ac-TSFAEYWNLLS-NH2 (Linear phage-derived peptide) [MTide-01]
result.units: nM
Kd: 33.2

Consider the additional binder presented here.
Req: # query: Kd of entry Ac-TSF[R8]EY[dTrp(6-Cl)]ALL[S5]-NH2 (staple 4-11, also called Ac-TSFXEY(D-6-Cl)WALLX-NH2; D-isomer) [sMTide-02B]
Resp: 2160

Origin of measurements: patent US20150246946A1
